Target: T1, TNFR1 (Homo sapiens, UniProt P19438)
T1 chain: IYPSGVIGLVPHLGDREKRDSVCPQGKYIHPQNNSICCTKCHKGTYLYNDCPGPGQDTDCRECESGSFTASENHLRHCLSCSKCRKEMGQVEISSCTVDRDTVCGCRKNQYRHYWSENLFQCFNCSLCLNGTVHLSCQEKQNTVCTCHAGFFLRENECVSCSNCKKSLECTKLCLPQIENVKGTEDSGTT
Assay: yeast display SC50
recordedEndpoint: apparent Kd (screen) (nM)

I = A15D (designed binder) MTLQELLREEALRRDEAEAFRYALELLAEKFPEQKEYLLDLAEEIESQIRSLSGVDVEDVRKFLDKEWAWVKELLAEHPAELAEVEAARAARLAELRAEVEAKVAA
II = A88E (designed binder) MTLQELLREEALRRAEAEAFRYALELLAEKFPEQKEYLLDLAEEIESQIRSLSGVDVEDVRKFLDKEWAWVKELLAEHPAELAEVEAERAARLAELRAEVEAKVAA
Challenge: Looking only at measured apparent Kd (screen), which entry is lower, I or II ? Select an item and report its label.
Response given: II
(II: 0.49 nM, I: 0.718 nM)

Values were extracted from paper PMC12416549.
